molecular target: T1, TSHR coated onto tubes (human, UniProt P16473 21-764, limits assumed); experiment: TSHR coated tubes, competitor 125I-5C9 IgG
T1 construct: whole entry named; also called TSHR coated tubes; thyrotropin receptor
Below: a set of entries, each annotated with reported % inhib of 125I-5C9 IgG binding at 1 µg/mL.
The figure you give is taken to be in %; do not add the unit.

Example binders with recorded % inhib of 125I-5C9 IgG binding at 1 µg/mL:
| binder | meas-value |
| --- | --- |
| 9D33 IgG (antibody, V domains shown) VH: DVQIQQPGTELVKPGASVRLSCKASGYTFTTYWMHWVKQRPGQGLEWIGEIDPSDSYTNYNQKFKGKATLTVDKSSSTAYMHLSSLTSEDSAVYYCSRNYGSGYYFDYWGQGTTLTVSS VL: GVEMTQSPAIMSASPGEKVTMTCSASSSVSYMHWYQQKSGTSPKRWIYDTSKLASGVPARFSGSGSGTSYSLTISSMETEDAATYYCQQWSSNPWTFGGGTKLEIK | 48 |
| 2B4 IgG (antibody, V domains shown) VH: DVQLQQSGTVLARPGASVRMSCKASGYSFTRYWIHWLKQRPGQGLEWIGAIFPGNRDTSYNQRFKGKAEVTAVTSASTAYLDLSSLTNEDSAVYYCTRWPYYGSIYVNFDYWGQGTTLTVSS VL: DIVMTQSPLSLPVSLGDQASISCRTSQNLVHRNGNTYLHWYLQKPGQSPKLLIYKISNRFSGVPDRFSGSGSGTDFTLKISRVEAEDLGVYFCSQGTHVPPTFGGGTKLEIKR | 42 |
| 17D2 IgG (antibody, V domains shown) VH: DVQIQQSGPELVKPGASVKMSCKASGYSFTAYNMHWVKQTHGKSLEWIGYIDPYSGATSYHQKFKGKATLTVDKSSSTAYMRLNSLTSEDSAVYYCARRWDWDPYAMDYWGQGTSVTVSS VL: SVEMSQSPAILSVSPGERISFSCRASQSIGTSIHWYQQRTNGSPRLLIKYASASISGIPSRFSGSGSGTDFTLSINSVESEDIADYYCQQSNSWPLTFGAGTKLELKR | 26 |
| 16E5 IgG (antibody, V domains shown) VH: DVQLVQSGPELVKPGASVKMSCKASGYSFTGYNMHWVKQSHGKSLEWIGYIDPYNGATSYNQKFEDKATLTVDKSSSTAYMQLNSLTSEDSAVYYCARRWDWDPYAMDYWGQGTSVTVSS VL: DILLTQSPAILSVSPGERVSFSCRASQSIGTSIHWYQQRTNGSPRLLIKYASESISGIFSRFSGSGSGTDFTLTINSVESEDIADYYCQQSNRWPLTFGAGTKLELKR | 47 |

Please turn your attention to the following entry.
Measured % inhib of 125I-5C9 IgG binding at 1 µg/mL, 14D3 IgG (antibody, V domains shown) VH: DVQMQQPGPELVKPGASLKMSCKASGYSFTGYNMHWVKQSHGKSLEWIGYIDPYSGATSYNQKFEGKATLTVDKSSSTAYMQLNSLTSEDSAVYYCARRWDWDPYAMDYWGQGTSVTVSS VL: NILMTQSPAILSVSPGERVSFACRASQSIGTSIHWYQQRTNGSPRLLIKYASESISGIPSRFSGSGSGTDFTLSINSVESEDIADYYCQQTNRWPLTFGAGTKLELKR : 35
